- Experimental Details: Pharmacokinetic study after single i.v. and p.o. administration in male SD rats
- Type: in vivo
- Measurement Conditions: male, SD, plasma; rat, po, 20 mg/kg; read-out: T1/2 (terminal) (converted)
Readout Name: half-life (h)

Molecule: CN1CCC[C@H](NC(=O)CC(C)(C)C)C(=O)N2C[C@@H](O)C[C@H]2COc2cccc(c2)C1=O [Ex. 571]
Value Reported: 2.3

Molecule: CN1CCC[C@H](N)C(=O)N2C[C@@H](Oc3ccccc3)C[C@H]2COc2cccc(c2)C1=O [Ex. 561]
Value Reported: 2.71

Molecule: CN1CCC[C@H](N)C(=O)N2C[C@@H](OCc3ccccc3)C[C@H]2COc2cccc(c2)C1=O [Ex. 568]
Value Reported: 2.07

---

- Experimental Details: Plasma stability assay, rat plasma (values in parentheses)
- Assay type: in vitro ADME
- Measurement Conditions: value in parentheses
Readout Name: Plasma Stability T½ [min] (rat)

Example results:
Molecule Smiles: COCCNC(=O)[C@@H]1COCC(=O)N2C[C@@H](NCC(C)C)C[C@H]2COc2cccc(c2)C(=O)N1C
Value Reported: (240) min

Molecule Smiles: CN1C(=O)c2cccc(c2)OC[C@@H]2C[C@H](NC(=O)CCc3ccncc3)CN2C(=O)COC[C@H]1C(=O)NCc1ccc2ccccc2c1
Value Reported: (240) min

Molecule Smiles: CN1CCC[C@H](N2CCNCC2)C(=O)N2C[C@@H](O)C[C@H]2COc2cccc(c2)C1=O
Value Reported: (240) min

Molecule Smiles: COCCNC(=O)[C@@H]1COCC(=O)N2C[C@@H](N3CCN(Cc4ccccc4)CC3)C[C@H]2COc2cccc(c2)C(=O)N1C
Value Reported: (240) min

Molecule Smiles: COCCNC(=O)[C@@H]1COCC(=O)N2C[C@@H](N3CCN(C)CC3)C[C@H]2COc2cccc(c2)C(=O)N1C
Value Reported: (240) min

Molecule Smiles: CN(C)CCNC(=O)[C@@H]1COCC(=O)N2C[C@@H](NC(=O)Cc3ccc4ccccc4c3)C[C@H]2COc2cccc(c2)C(=O)N1C
Value Reported: (240) min

Incoming: Which measured Plasma Stability T½ [min] (rat) value corresponds to CC(C)CN[C@H]1C[C@H]2COc3cccc(c3)C(=O)N(C)[C@H](C(=O)NCc3ccc4ccccc4c3)COCC(=O)N2C1 ?
Outgoing: (240) min

Incoming: Recorded Plasma Stability T½ [min] (rat) of COCCNC(=O)[C@@H]1COCC(=O)N2C[C@@H](N)C[C@H]2COc2cccc(c2)C(=O)N1C , please.
Outgoing: (240) min

Incoming: I have this compound here, CN1C(=O)c2cccc(c2)OC[C@@H]2C[C@H](N)CN2C(=O)COC[C@H]1C(=O)NCc1ccc2ccccc2c1 , and I need its recorded Plasma Stability T½ [min] (rat).
Outgoing: (240) min

---

- System: MAPK/MEK/B-raf pathway (AP1-bla A375 cells)
- Experimental Details: MAPK/MEK/B-raf AP1-bla A375 inhibitor screen, constitutively activated (negative control of the Wnt assay)
- Assay type: cell-based
- Measurement Conditions: Homo sapiens, A-375, read-out: AP receptor gene activity IC50
Readout Name: IC50

Molecule Smiles: CN1CC(=O)N2C[C@@H](NC(=O)c3cccc4ccccc34)C[C@H]2COc2ccc(F)cc2C(=O)N(C)[C@H](C(=O)NCc2ccc3ccccc3c2)CCC1=O
IC50: > 50 µM

Next:
Incoming: Fill blank: measured IC50 of the molecule CN1CC(=O)N2C[C@@H](NC(=O)c3cccc(Cl)c3)C[C@H]2COc2ccc(F)cc2C(=O)N(C)[C@H](C(=O)NCc2cccc3ccccc23)CCC1=O is ____.
Outgoing: > 50 µM

---

Entries and their measured Metabolic Stability T½ [min] mouse follow.
- Experimental Details: Metabolic stability assay, CD-1 mouse microsomes
- Assay type: in vitro ADME
- Measurement Conditions: both, CD-1, mouse, microsomes, 10 µM

Some molecules with recorded Metabolic Stability T½ [min] mouse:
Molecule: CN1CC(=O)N2C[C@@H](N)C[C@H]2COc2ccc(F)cc2C(=O)N(C)[C@@H](C(=O)NCc2ccc3ccccc3c2)CCC1=O [Ex. 91]
Metabolic Stability T½ [min] mouse: > 60 min

Molecule: CN1CC(=O)N2C[C@@H](NC(=O)Cc3cccc4ccccc34)C[C@H]2COc2ccc(F)cc2C(=O)N(C)[C@H](C(=O)NCCNC(=N)N)CCC1=O [Ex. 484]
Metabolic Stability T½ [min] mouse: > 60 min

Molecule: CN1CC(=O)N2C[C@@H](NC(=O)Cc3cccc4ccccc34)C[C@H]2COc2ccc(F)cc2C(=O)N(C)[C@H](C(=O)NCCN)CCC1=O [Ex. 483]
Metabolic Stability T½ [min] mouse: > 60 min

Molecule: CN1CC(=O)N2C[C@H](NC(=O)CCc3ccncc3)C[C@H]2COc2ccc(cc2)C(=O)N(C)[C@H](C(=O)NCc2ccc3ccccc3c2)CCC1=O [Ex. 260]
Metabolic Stability T½ [min] mouse: > 60 min

Molecule: CN(C)CCNC(=O)[C@@H]1CCC(=O)N(C)CC(=O)N2C[C@@H](NC(=O)Cc3cccc4ccccc34)C[C@H]2COc2ccc(F)cc2C(=O)N1C [Ex. 49]
Metabolic Stability T½ [min] mouse: > 60 min

Could you now look at the following molecule, please?
Incoming: Need Metabolic Stability T½ [min] mouse, item CN1C[C@H](NC(=O)OCc2ccccc2)C(=O)N(C)CC(=O)N2C[C@@H](NC(=O)OC(C)(C)C)C[C@H]2COc2cncc(c2)C1=O [Ex. 272]
Outgoing: > 60 min

---

Recorded Metabolic Stability T½ [min] mouse by entry
- Experimental Details: Metabolic stability assay, CD-1 mouse microsomes
- Format: in vitro ADME
- Measurement Conditions: mouse, microsomes

See these solved cases before continuing.
Molecule Smiles: CC(=O)N[C@H]1C[C@H]2COc3ccc(F)cc3C(=O)N(C)[C@H](C(=O)N3CCCC3)CCC(=O)N(C)CC(=O)N2C1
Metabolic Stability T½ [min] mouse: > 60 min
--
Molecule Smiles: CN1CCC[C@H](N)C(=O)N2C[C@@H](OCc3ccc(-c4ccccc4)cc3)C[C@H]2COc2cccc(c2)C1=O
Metabolic Stability T½ [min] mouse: > 60 min
--
Molecule Smiles: CCCCC(=O)N[C@H]1C[C@H]2COc3cccc(c3)C(=O)N(C)CC[C@H](NC(=O)CCc3ccncc3)C(=O)N2C1
Metabolic Stability T½ [min] mouse: > 60 min

--- query ---
Incoming: May I ask what Metabolic Stability T½ [min] mouse has been recorded for CN1CC(=O)N2C[C@@H](NC(=O)CCC(=O)O)C[C@H]2COc2ccc(F)cc2C(=O)N(C)[C@@H](C(=O)NCc2ccc3ccccc3c2)CCC1=O ?
Outgoing: > 60 min

---

- Tested Target: 5-hydroxytryptamine 2B (5-HT2B) Receptor (Homo sapiens)
- Construct: host or cells: Ca2+ optimized hematopoietic cell lines (rat)
- Sequence (P41595 whole entry, species assumed): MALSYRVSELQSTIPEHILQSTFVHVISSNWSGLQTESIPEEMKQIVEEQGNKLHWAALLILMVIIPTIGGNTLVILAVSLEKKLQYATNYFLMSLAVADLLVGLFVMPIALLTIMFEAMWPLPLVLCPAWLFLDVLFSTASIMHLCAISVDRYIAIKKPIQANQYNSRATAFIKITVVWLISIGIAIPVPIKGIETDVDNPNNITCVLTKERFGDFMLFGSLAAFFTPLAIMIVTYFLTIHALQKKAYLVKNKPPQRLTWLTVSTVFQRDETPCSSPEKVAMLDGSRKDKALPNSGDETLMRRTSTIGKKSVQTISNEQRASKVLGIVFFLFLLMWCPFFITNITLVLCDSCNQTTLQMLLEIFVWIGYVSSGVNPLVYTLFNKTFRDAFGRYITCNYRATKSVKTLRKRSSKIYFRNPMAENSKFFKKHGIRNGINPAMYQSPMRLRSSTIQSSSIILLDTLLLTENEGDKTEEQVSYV
- Experimental Details: Ca2+ assay (FLIPR) for the GPCR 5-HT2B receptor, agonist and antagonist mode
- Type: cell-based
- Measurement Conditions: 12.5 μM
Readout Name: Agonist activity [% activation at 12.5 μM] (%)

Molecule Smiles: CN(C)CC(=O)N[C@H]1C[C@H]2COc3ccc(F)cc3C(=O)N(C)[C@H](C(=O)NCCc3c[nH]c4ccccc34)CCC(=O)N(C)CC(=O)N2C1
Value Reported: 45
//
Molecule Smiles: CC(=O)N[C@H]1C[C@H]2COc3ccc(F)cc3C(=O)N(C)[C@H](C(=O)NCCc3c[nH]c4ccccc34)CCC(=O)N(C)CC(=O)N2C1
Value Reported: 48
//
Molecule Smiles: CN1CC(=O)N2C[C@@H](NC(=O)Cc3c[nH]c4ccccc34)C[C@H]2COc2ccc(F)cc2C(=O)N(C)[C@H](C(=O)NCCc2c[nH]c3ccccc23)CCC1=O
Value Reported: 36
//
Molecule Smiles: CN1CC(=O)N2C[C@@H](NC(=O)OC(C)(C)C)C[C@H]2COc2ccc(F)cc2C(=O)N(C)[C@H](C(=O)NCCc2c[nH]c3ccccc23)CCC1=O
Value Reported: 48

---

- Experimental Details: Pharmacokinetic study after single i.v. and p.o. administration in male SD rats
- Format: in vivo
- Measurement Conditions: male, SD, plasma; rat, po, 5 mg/kg
Readout Name: Tmax (min)

Molecule Smiles: CN1CCC[C@H](NC(=O)CC(C)(C)C)C(=O)N2C[C@@H](O)C[C@H]2COc2cccc(c2)C1=O
Tmax / min: 15

A: CN1CCC[C@H](N)C(=O)N2C[C@@H](OCc3ccccc3)C[C@H]2COc2cccc(c2)C1=O
B: CN1CCC[C@H](N)C(=O)N2C[C@@H](Oc3ccccc3)C[C@H]2COc2cccc(c2)C1=O
Incoming: Compare reported Tmax values for A and B . Which is lower? Answer with the label corresponding to your selection.
Outgoing: A

---

- Experimental Details: Metabolic stability assay, CD-1 mouse microsomes
- Type: in vitro ADME
- Measurement Conditions: both, CD-1, mouse, microsomes, 1 h, 10 µM
- Method: 4. Plasma and Metabolic Stability Assays […] Microsomes from a human 50 donor mixed gender pool and 1:1 mixtures of microsomes from CD-1 mouse single-gender pools are purchased from Celsis (Belgium). […] After acetonitrile precipitation (2 volumes) and HPLC/MS/MS analysis metabolic turnover is expressed in % of the initial 0 minutes value and half life T½ (min) is calculated. […]
Readout Name: Metabolic Stability 60 min mouse [% remain.] (% remain.)

// solved cases for Metabolic Stability 60 min mouse [% remain.] follow
Molecule: CN1CCC[C@H](NC(=O)OCc2ccccc2)C(=O)N2C[C@@H](NC(=O)Cc3ccc4ccccc4c3)C[C@H]2COc2cccc(c2)C1=O [Ex. 184]
Value Reported: 0

Molecule: CN(C)CCNC(=O)[C@@H]1CCC(=O)N(C)CC(=O)N2C[C@@H](NC(=O)Cc3c[nH]c4ccccc34)C[C@H]2COc2ccc(F)cc2C(=O)N1C [Ex. 11]
Value Reported: 77

Molecule: CN1CCC[C@H](N2CCN(S(C)(=O)=O)CC2)C(=O)N2C[C@@H](O)C[C@H]2COc2cccc(c2)C1=O [Ex. 583]
Value Reported: 95

Molecule: CN1C[C@H](NC(=O)OCc2ccccc2)C(=O)N(C)CC(=O)N2C[C@@H](NC(=O)Cc3c[nH]c4ccccc34)C[C@H]2COc2cccc(c2)C1=O [Ex. 200]
Value Reported: 26

I: CN1CCC[C@H](NC(=O)Cc2cccc(-c3ccccc3)c2)C(=O)N2C[C@@H](NC(=O)Nc3cccc(N(C)C)c3)C[C@H]2COc2cccc(c2)C1=O [Ex. 525]
II: COCCNC(=O)[C@@H]1COCC(=O)N2C[C@@H](N)C[C@H]2COc2cccc(c2)C(=O)N1C [Ex. 369]
Incoming: Hi! Which is lower in terms of Metabolic Stability 60 min mouse [% remain.], the first one I or the second one II ? Use the label to indicate which entry you chose.
Outgoing: I
